test system: KM12 colon; assay: NCI tumour cell line growth inhibition, 48 h
Reported TGI values for the following molecules.

compound_smiles	TGI
O=C(c1ccc(NCN2C(=O)CCC2=O)cc1)c1ccc(NCN2C(=O)CCC2=O)cc1	> 100 µM
Cc1[nH]n(-c2nc(O)c(C)c(=O)[nH]2)c(=O)c1CCO	> 100 µM
Cn1c2ccccc2n2c3ccccc3c(=S)c(C#N)c12	> 100 µM
c1ccc2c(Cc3c[nH]c4ccccc34)c[nH]c2c1	40.5 µM
CCOC(=O)[C@@H](C)C[C@H](Cc1ccccc1)NC(=O)c1csc([C@@H](C[C@H](C(C)C)N(C)C(=O)[C@H](CCC(C)C)NC(=O)[C@H]2CCCCN2C)OC(C)=O)n1	4.81 µM
Nc1ncc(-c2ccc(C(F)(F)F)cc2)c(NC2CCCCCC2)n1	> 100 µM
Cc1nn2c(/C=C3/C(=O)Nc4ccccc43)c(-c3ccc(Cl)cc3)nc2s1	> 50 µM
CN(C)CCNC(=O)c1cc([N+](=O)[O-])ccn1	> 100 µM
N#C[C@](CO)(NC(=O)OCc1ccccc1)C(F)F	> 100 µM
N#CC1(c2nc3ccccc3o2)C(=O)C(=O)N(c2ccc(Cl)c(Cl)c2)C(=O)C1=O	> 100 µM

---

Reported TGI values for the following compounds.
system: HCC-2998 colon; assay: NCI tumour cell line growth inhibition, 48 h

compound	unit_name	bound_type	TGI
COc1cc(-c2cc(-c3nc4ccccc4[nH]3)[nH]n2)cc(OC)c1OC	µM	=	21.5
O=[N+]([O-])c1cccc2nc3ccccc3c(NCCNCCO)c12	µM	=	0.0101
COc1cc2cnc3c(c2cc1OC)Cc1cc2c(cc1-3)OCO2	µM	=	0.0562
CN(C)CCNC(=O)c1cc([N+](=O)[O-])ccn1	µM	>	100
CCOC(=O)NNC1(SC)NC(=O)c2c(cc(Cl)oc2=O)O1 (stereo not given)	µM	=	16.1
CC(=O)Oc1cccc2c1C(=O)C(Br)(Br)CCC2	µM	=	31.1
CN(C)CCCn1c2c3ccccc3ccc2c2oc(=O)c3ccccc3c21	µM	=	2.46
C/C(=C1/N=C(c2cc([N+](=O)[O-])ccc2Cl)N(C2=CC=C(Cl)CC2)C1=O)c1cc2ccccc2oc1=O	µM	>	100
CC(=O)O[C@@H]1CC(C)C2CC2C2=C(C(O)OC2O)[C@@H]1C(C)CCC=C(C)C (stereo not given in full)	µM	=	40.5
COc1ccc2nc(NC(=O)C(=O)CC(=O)c3ccc(Cl)cc3)sc2c1	µM	>	100
Cc1cc2c(C(N)=O)cccc2n1-c1nc2c(c(NCc3ccccc3)n1)CCCN2	µM	=	0.325
CCOC(=O)C1(Cc2ccccc2)CCN(C(=O)c2ccccc2)C2C1C2(Cl)Cl (stereo not given)	µM	=	30.5
Cc1cc(S(=O)(=O)NC#N)c(S/C(=N\Nc2ccc([N+](=O)[O-])cc2)c2ccccc2)cc1Cl	µM	=	30.9
N#CSCC1CC(O)(c2ccccc2)C(c2ccccc2)C(c2ccc(F)cc2)O1 (stereo not given)	µM	=	23
COc1ccc(/C=N/n2c(C)n[nH]c2=O)cc1	µM	>	100
O=S(=O)(NC(c1ccccc1)(c1cc2ccccc2[nH]1)c1cc2ccccc2n1S(=O)(=O)c1ccccc1)c1ccccc1 (stereo not given)	µM	>	100
COC[C@H]1OC(=O)c2coc3c2[C@@]1(C)C1=C(C3=O)[C@@H]2CCC(=O)[C@@]2(C)C[C@H]1OC(C)=O	µM	=	20
O=[N+]([O-])C(=C/C1CCCCC1)/C(=C\C1CCCCC1)[N+](=O)[O-]	µM	=	36.4
O=C(c1ccco1)N1CCN(C(=O)c2ccco2)C1=S	µM	=	25.7
C=C1CC(CNc2cc(Cl)nc(N)n2)C1	µM	>	100
Cc1ccc(NNc2cc(=O)[nH]c(=O)[nH]2)cc1Cl	µM	=	29.8
NNC(=O)CCCCCCCC(=O)O	µM	>	100
CCOC(=O)CC[C@@H](NC(=O)c1ccc(NCc2ccc3nc(OC)c(OC)nc3c2)cc1)C(=O)OCC	µM	>	100
COc1ccc(C=NC23CC4CC(CC(C4)C2)C3)cc1	µM	>	100
CNS(=O)(=O)NN(C)S(=O)(=O)c1ccc(Br)cc1	µM	>	100
NC(=O)C1=C(c2ccccc2)c2ccccc2C1=O	µM	=	29.5
NC1CCC[C@@H](O)[C@H]1O (stereo not given in full)	µM	>	100
c1ccc(-c2cc(-c3cc(-c4ccccc4)n[nH]3)[nH]n2)cc1	µM	>	100
O[C@]12CCCC[C@H]1CCC2	µM	>	100
CC(=O)/C=C/c1c[nH]c(=O)[nH]c1=O	µM	=	480
OCCCN(CCc1ccc(Cl)c(Cl)c1)CCN1CCCC1	µM	=	32.9
Cc1ccc(NC2=C(Sc3ccc(Cl)cc3)C(=O)N(Cc3ccccc3)C2=O)cc1Cl	µM	>	100
O=C(/C=C/c1ccc(Cl)c(Cl)c1)CCN1CCN(CCC(=O)/C=C/c2ccc(Cl)c(Cl)c2)CC1	µM	=	28.9
C/C=C/[C@@H]1O[C@H](CC#C[Si](C)(C)C)[C@@]2(C=O)C(C)=CC[C@H](C(C)C)[C@@H]12	µM	=	36.5
C=C(CN1CCN(c2ccccc2F)CC1)c1ccc(C(=O)Nc2ccccc2N)cc1	µM	=	17.7
O=C(Nc1nccs1)c1cc(C2=CC=CC([N+](=O)[O-])C=C2)nc(=S)[nH]1 (stereo not given)	µM	>	100
CC1=CC[C@H](C)C(C)(C)C1/C=C/C(C)=C/CC[C@@]1(CO)[C@H](CCCO)/C(=C(/C)C=O)CC[C@]1(C)O (stereo not given in full)	µM	=	4.41
O=S(=O)(O)c1ccc(N=Nc2ccc(N=Nc3ccc(/C=C/c4ccc(N=[N+]([O-])c5ccc(/C=C/c6ccc(N=Nc7ccc(N=Nc8ccc(S(=O)(=O)O)cc8)c8ccccc78)cc6S(=O)(=O)O)c(S(=O)(=O)O)c5)cc4S(=O)(=O)O)c(S(=O)(=O)O)c3)c3ccccc23)cc1	µM	>	100
O=C(/C(Cl)=C/c1ccccc1)c1ccccc1	µM	=	12.9
COc1cccc(/C=C/C(=O)c2cc3c(N)c(C(=O)Nc4cccc(Cl)c4C)sc3nc2C)c1	µM	=	1.83

---

system: SNB-19 CNS; assay: NCI tumour cell line growth inhibition, 48 h; in the data active = GI50 below about 0.43 µM; inactive = the rest
Classes used: 1.0 (active), 0.0 (inactive)

molecule	label_class
COc1cc2cnc3c(c2cc1OC)Cc1cc2c(cc1-3)OCO2	1.0
C#CC[C@H](c1nc2cc(Cl)ccc2c(=O)n1Nc1ccccc1)N(CCCN)C(=O)c1cccc(Cl)c1F	0.0
CCC(C)/C=C(C)/C=C/C(=O)c1c(O)c(-c2ccc(O)cc2)c[nH]c1=O (stereo unspecified)	0.0
Cc1nc(NC(=S)Nc2ccc(F)cc2)sc1C(=O)NNC(=S)Nc1ccc(F)cc1	0.0
c1ccc2[nH]c(-c3ccc(OCCCCCOc4ccc(-c5nc6ccccc6[nH]5)cc4)cc3)nc2c1	0.0
Cc1nn2c(/C=C3/C(=O)Nc4ccccc43)c(-c3ccc(Cl)cc3)nc2s1	0.0
CN1CCN(Cc2ccc(NC(=O)c3[nH]ncc3Nc3ncnc4c3CCC4)cc2)CC1	0.0
Fc1ccc(-c2nnc3sc(-c4cccc(Cl)c4)nn23)cc1Cl	0.0
Nc1ncc(-c2ccc(C(F)(F)F)cc2)c(NC2CCCCCC2)n1	0.0
CCS(=O)(=O)c1ccc(OC)c(Nc2nccc(N(C)c3ccc4c(C)[nH]nc4c3)n2)c1	0.0
Cc1c(Cl)cccc1NC(=O)c1sc2nc3c(cc2c1N)CCCCCC3	1.0

---

system: SNB-75 CNS; experiment: NCI tumour cell line growth inhibition, 48 h
*1 amine or outer side, *2 acyl side, *3 side chain or, on linkers, in order; H or OH if unused. Where a SMILES comes first, the peptide text is derived from it. Bridges are numbered along the chain shown (N, C = ends). [ ]: non-standard residue; d: D form. The star is where a group is joined. Phe(3-Me) = Cc1cccc(C[C@H](N)C(=O)O)c1; NH(4-Cl-2-F-phenyl) = Fc1cc(Cl)ccc1N*; Pro(4R-Me) = C[C@H]1CN[C@H](C(=O)O)C1; Hyp = O=C(O)[C@@H]1C[C@@H](O)CN1; aThr = C[C@H](O)[C@H](N)C(=O)O; Pip = O=C(O)[C@@H]1CCCCN1; CO = O=C([*:1])[*:2]
Reported TGI values for the following molecules.
readout_name: TGI

molecule	value_measured
C=CC1(CBr)CCC(C(C)(C)Br)O1 (stereo unspecified)	20.4 µM
Cc1nc(NC(=S)Nc2ccc(F)cc2)sc1C(=O)NNC(=S)Nc1ccc(F)cc1	54.7 µM
COc1cc2c(cc1OC)[C@@H](C(O)c1ccccc1)NCC2 (stereo partly specified)	> 100 µM
C=C1C(=O)O[C@@H]2C[C@@H](C)[C@@H]3[C@@H](OC4OC(COC(C)=O)C(O)C(O)C4O)CC(=O)[C@@]3(C)C[C@H]12 (stereo partly specified)	15.3 µM
CC(=O)NC1CCC(NC(=O)OC(C)(C)C)C(NC(=O)OC(C)(C)C)C1 (stereo unspecified)	> 100 µM
CN(C)CCCn1c2c3ccccc3ccc2c2oc(=O)c3ccccc3c21	12 µM
Cc1cccc(C[C@H](NC(=O)Nc2ccc(Cl)cc2F)C(=O)N[C@@H]2C(=O)N3C[C@H](O)C[C@H]3C(=O)N3CCCC[C@H]3C(=O)N[C@@H](C)C(=O)N3C[C@H](C)C[C@H]3C(=O)O[C@H]2C)c1 ({NH(4-Cl-2-F-phenyl)-CO}-[Phe(3-Me)][aThr][Hyp][Pip]A[Pro(4R-Me)]; ester 2-C)	4.8 µM
CC1C=C(NCC2(CO)CCC2)NC(N)=N1 (stereo unspecified)	> 100 µM
O[C@]12CCCC[C@H]1CCC2	> 100 µM
CCOC(=O)NC(=O)c1cn(CCCOC(=O)CCCCCCCCC(=O)OCCCn2cc(C(=O)NC(=O)OCC)c(=O)[nH]c2=O)c(=O)[nH]c1=O	> 100 µM
Cc1ccc(NS(=O)(=O)c2cc(C)ccc2C)cc1	24.8 µM
CN(C)c1ccc(/C=C2\N=C(c3ccc(N)cc3)OC2=O)cc1	> 100 µM
COc1cc2cnc3c(c2cc1OC)Cc1cc2c(cc1-3)OCO2	> 49.3 µM
Cc1ccc(N2C(=O)CC(=O)N(NC(=O)C(C)Oc3ccccc3C)C2=S)cc1 (stereo unspecified)	> 100 µM
O=Cc1[nH]c2ccccc2c1Br	52.6 µM
CCOc1cc2ncc(C#N)c(Nc3ccc(F)c(Cl)c3)c2cc1NC(=O)/C=C/CN(C)C	> 3.71 µM
Cn1c(=O)c2[nH]c(COCc3nc4c([nH]3)c(=O)n(C)c(=O)n4C)nc2n(C)c1=O	> 100 µM
Cc1nn2c(/C=C3/C(=O)Nc4ccc(Cl)cc43)c(-c3ccccc3)nc2s1	2.69 µM
CNC(=O)CNC(=O)CCC(=O)N(C)C	> 100 µM
O=C(/C=C/c1ccc(Cl)c(Cl)c1)CCN1CCN(CCC(=O)/C=C/c2ccc(Cl)c(Cl)c2)CC1	> 100 µM
C=CCN=C1N=C(CC(=O)OCC)CS1	> 100 µM
